Tested on: 60 human tumor cell lines (NCI60)
Test: NCI60 five-dose screen, whole panel and sub-panel means
Format: cell-based
Details: Homo sapiens, mean over Breast Cancer panel; read-out: GI50 Mean
Define the label as Criterion met when GI50 is strictly less than 3 µM and as Criterion not met in all remaining cases.

Consider the worked cases shown below.
{"Compound": "CC[C@]12C=CCN3CC[C@@]4(c5ccc(OC)cc5N(C)[C@H]4[C@@](O)(C(=O)OC)[C@@H]1OC(=O)CCC(=O)N1CCN(Cc4ccc(C(F)(F)F)cc4)CC1)[C@@H]32 [Compound 29]", "Assigned Category": "Criterion not met"}
{"Compound": "CC[C@]12C=CCN3CC[C@@]4(c5ccc(OC)cc5N(C)[C@H]4[C@@](O)(C(=O)OC)[C@@H]1OC(=O)CCC(=O)N1CCN(c4ccc(C(F)(F)F)cc4)CC1)[C@@H]32 [Compound 28]", "Assigned Category": "Criterion not met"}
{"Compound": "CC[C@]12C=CCN3CC[C@@]4(c5ccc(OC)cc5N(C)[C@H]4[C@@](O)(C(=O)OC)[C@@H]1OC(=O)CCCN1CCN(Cc4ccc(F)cc4)CC1)[C@@H]32 [Compound 24]", "Assigned Category": "Criterion not met"}
{"Compound": "CCC12C=CCN3CCC4(c5cc(NC(=O)CN6CCN(c7ccc(C(F)(F)F)cc7)CC6)c(OC)cc5N(C)C4C(O)(C(=O)OC)C1OC(C)=O)C32 (centres unmarked) [Compound 17]", "Assigned Category": "Criterion not met"}
{"Compound": "CCC12C=CCN3CCC4(c5cc(NC(=O)CN6CCN(C(c7ccc(F)cc7)c7ccc(F)cc7)CC6)c(OC)cc5N(C)C4C(O)(C(=O)OC)C1OC(C)=O)C32 (centres unmarked) [Compound 20]", "Assigned Category": "Criterion not met"}

Lab note: GI50 threshold 3 µM. Does this compound come in strictly under it? CC[C@]12C=CCN3CC[C@@]4(c5ccc(OC)cc5N(C)[C@H]4[C@@](O)(C(=O)OC)[C@@H]1OC(=O)CCCN1CCN(Cc4ccc(C(F)(F)F)cc4)CC1)[C@@H]32 [Compound 23]
Criterion met

Lab note: GI50 threshold 3 µM. Does this compound come in strictly under it? CC[C@]12C=CCN3CC[C@@]4(c5ccc(OC)cc5N(C)[C@H]4[C@@](O)(C(=O)OC)[C@@H]1OC(=O)CCCN1CCN(c4ccc(C(F)(F)F)cc4)CC1)[C@@H]32 [Compound 22]
Criterion met

Lab note: GI50 threshold 3 µM. Does this compound come in strictly under it? CC[C@]12C=CCN3CC[C@@]4(c5ccc(OC)cc5N(C)[C@H]4[C@@](O)(C(=O)OC)[C@@H]1OC(=O)CCC(=O)N1CCN(C(c4ccc(F)cc4)c4ccc(F)cc4)CC1)[C@@H]32 [Compound 31]
Criterion met
